- Test system: serum cholesterol and serum triglycerides
- experiment: Hypolipidaemic activity in rats (compound in diet, last 7 of 10 days)
- Format: in vivo, Male Wistar rats
- conditionLabel: Rattus norvegicus, po, 168 h, 0.2 % w/w dose in diet, 7 days, read-out: % change in serum cholesterol compared with control
A collection of compounds and their measured change in vivo at 0.2 % strength

compound	change in vivo at 0.2 % strength / %
CCCCCCCCCCCCCCCc1cc2cc(C(=O)OC)ccc2[nH]1	-16
CCCCCCCCCCCc1cc2cc(C(=O)O)ccc2[nH]1	-37
CCCCCCCCCCCCCCCCCC1Cc2cc(C(=O)O)ccc2N1 (racemic)	-6
CCCCCCCCCCCCc1cc2ccc(C(=O)O)cc2[nH]1	-26
CCCCCCCCCCCc1cc2c(C(=O)O)cccc2[nH]1	-3
CCCCCCCCCC(C)c1cc2cc(C(=O)O)ccc2[nH]1 (racemic)	-7
CCCCCCCc1cc2ccc(C(=O)OCCCC)cc2[nH]1 [Compound AKK, n-butyl 2-(n-heptyl)indole-6-carboxylate]	-3
CCCCCCCc1cc2ccc(C(=O)OCC)cc2[nH]1 [Compound AJJ, ethyl 2-(n-heptyl)indole-6-carboxylate]	-8
CCCCCCCCCCCC1Cc2ccc(C(=O)O)cc2N1 (racemic)	-38
CCCCCCCCCCCCCCCc1cc2cccc(C(=O)O)c2[nH]1	-26
CCCCCCCCc1cc2cc(C(=O)O)ccc2[nH]1	-18
CCCCCCCCCCCCCCCc1cc2c(C(=O)OCC)cccc2[nH]1	-5
CCCCCCCCCCCCCCCCC1CNc2ccc(C(=O)OC)cc21 (racemic)	7
CCCCCCCCCCCCCCCC1Cc2cc(C(=O)O)ccc2N1 (racemic)	-12
CCCCCCCCCCCC1Nc2cc(C(=O)O)ccc2C1C (stereo not shown)	-31
CCCCCCCCCCCCCCCc1cc2cc(C(=O)OCC)ccc2[nH]1	-19

###

- Tested on: serum cholesterol and serum triglycerides
- experiment: Hypolipidaemic activity in rats (compound in diet, last 7 of 10 days)
- Type: in vivo, Male Wistar rats
- conditionLabel: Rattus norvegicus, po, 168 h, 0.2 % w/w dose in diet, 7 days, read-out: % change in serum cholesterol compared with control

molecule	scaleUnit	change in vivo at 0.2 % strength
CCCCCCCCCCCC1Cc2ccc(C(=O)O)cc2N1C (racemic)	%	0
CCCCCCCCCCCC1Cc2cc(C(=O)O)ccc2N1 (racemic)	%	-32
CCCCCCCCCCCCCCCc1cc2c(C(=O)OCCCC)cccc2[nH]1	%	25
CCCCCCCCC1CNc2cc(C(=O)OC)ccc21 (racemic)	%	-16
CCCCCCCCCCCCCCCCCCCCc1cc2ccc(C(=O)O)cc2[nH]1	%	-15
CCCCCCCCCCCCCCCCCc1cc2ccc(C(=O)O)cc2[nH]1	%	5
CCCCCCCc1cc2ccc(C(=O)OC)cc2[nH]1 [Compound AII, methyl 2-(n-heptyl)indole-6-carboxylate]	%	7
CCCCCCCC1Cc2cc(C(=O)O)ccc2N1 (racemic)	%	-18
CCCCCCCc1cc2cc(C(=O)OCCCC)ccc2[nH]1 [Compound ARR, n-butyl 2-(n-heptyl)indole-5-carboxylate]	%	8
CCCCCCCCCCCCCCCCCCc1c[nH]c2ccc(C(=O)O)cc12	%	-9
CCCCCCCCc1c[nH]c2cc(C(=O)O)ccc12	%	-19
CCCCCCCCCCCc1cc2cc(C(=O)OCC)ccc2[nH]1 [Compound U, ethyl 2-(n-undecyl)indole-5-carboxylate]	%	-13
CCCCCCCCCCCCCCCc1cc2c(C(=O)O)cccc2[nH]1	%	-9
CCCCCCCCCCC1CNc2cc(C(=O)O)ccc21 (racemic)	%	-23
CCCCCCCCCCCCCCCCCCC1CNc2cc(C(=O)O)ccc21 (racemic)	%	2

###

The entries below are paired with their reported change in vivo at 0.2 % strength.
- Tested on: serum cholesterol and serum triglycerides
- experiment: Hypolipidaemic activity in rats (compound in diet, last 7 of 10 days)
- Format: in vivo, Male Wistar rats
- conditionLabel: Rattus norvegicus, po, 168 h, 0.2 % w/w dose in diet, 7 days, read-out: % change in serum triglycerides compared with control
- Description: Hypolipidaemic Activity in Rats Male Wistar rats each weighing between 120 and 150 g were caged in groups of eight and fed a powdered diet for 10 days. […] Food consumption was measured on day 9 for each group. At noon on day 10 the animals were killed by inhalation of carbon dioxide from solid carbon dioxide. A sample of blood was removed by cardiac puncture and the serum cholesterol and serum triglycerides were analysed by means of an autoanalyser. […]
experimentalReadout: change in vivo at 0.2 % strength (%)

molecule	scaleUnit	measValue
CCCCCCCCCCCc1cc2cc(C(=O)OCC)ccc2[nH]1 [Compound U, ethyl 2-(n-undecyl)indole-5-carboxylate]	%	-39
CCCCCCCCCCC1Cc2cc(C(=O)O)ccc2N1 (racemic) [Compound ACC]	%	-71
CCCCCCCCCCCc1cc2cccc(C(=O)O)c2[nH]1 [Compound XX, 2-(n-undecyl)indole-7-carboxylic acid]	%	8
CCCCCCCCCCCCCCCCCCC1CNc2cc(C(=O)O)ccc21 (racemic) [Compound CBB]	%	-7
CCCCCCCCCCCCCCc1cc2ccc(C(=O)O)cc2[nH]1 [Compound SS, 2-(n-tetradecyl)indole-6-carboxylic acid]	%	3
CCCCCCCc1cc2ccc(C(=O)OC)cc2[nH]1 [Compound AII, methyl 2-(n-heptyl)indole-6-carboxylate]	%	20
CCCCCCCCCc1cc2cc(C(=O)O)ccc2[nH]1 [Compound O, 2-(n-nonyl)indole-5-carboxylic acid]	%	-44

###

- Tested on: serum cholesterol and serum triglycerides
- experiment: Hypolipidaemic activity in rats (compound in diet, last 7 of 10 days)
- Format: in vivo, Male Wistar rats
- conditionLabel: Rattus norvegicus, po, 168 h, 0.2 % w/w dose in diet, 7 days, read-out: % change in serum triglycerides compared with control
experimentalReadout: change in vivo at 0.2 % strength (%)

compound	testTarget	scaleUnit	measValue
CCCCCCCCCCCCCCCC1CNc2cc(C(=O)O)ccc21 (racemic)	serum cholesterol and serum triglycerides	%	-29
CCCCCCCCCCCCCc1cc2cc(C(=O)O)ccc2[nH]1	serum cholesterol and serum triglycerides	%	-68
CCCCCCCCCCC1CNc2ccc(C(=O)O)cc21 (racemic)	serum cholesterol and serum triglycerides	%	0
CCCCCCCCCCCCCCCCCC1Cc2cc(C(=O)O)ccc2N1 (racemic)	serum cholesterol and serum triglycerides	%	-40
CCCCCCCCCCCCCCCCCCc1cc2ccc(C(=O)O)cc2[nH]1	serum cholesterol and serum triglycerides	%	-1
CCCCCCCCC1CNc2cc(C(=O)OC)ccc21 (racemic)	serum cholesterol and serum triglycerides	%	-16
CCCCCCCCCCCCCCCCCCCCc1cc2ccc(C(=O)O)cc2[nH]1	serum cholesterol and serum triglycerides	%	-29
CCCCCCCCCCCc1cc2cc(C(=O)OC)ccc2[nH]1 [Compound ATT, methyl 2-(n-undecyl)indole-5-carboxylate]	serum cholesterol and serum triglycerides	%	-70

###

- System: serum cholesterol and serum triglycerides
- experiment: Hypolipidaemic activity in rats (compound in diet, last 7 of 10 days)
- Format: in vivo, Male Wistar rats
- conditionLabel: Rattus norvegicus, po, 168 h, 0.2 % w/w dose in diet, 7 days, read-out: % change in serum triglycerides compared with control
Examples of compounds with documented change in vivo at 0.2 % strength follow.
experimentalReadout: change in vivo at 0.2 % strength (%)

compound	testTarget	measValue
CCCCCCCCc1cc2cc(C(=O)O)ccc2[nH]1 [Compound X, 2-(n-octyl)indole-5-carboxylic acid]	serum cholesterol and serum triglycerides	-25
CCCCCCCCCCCCCCCCCCCc1cc2cc(C(=O)O)ccc2[nH]1 [Compound PP, 2-(n-nonadecyl)indole-5-carboxylic acid]	serum cholesterol and serum triglycerides	-41
CCCCCCCCCCCCCCCCCCc1c[nH]c2cc(C(=O)O)ccc12 [Compound BGG, 3-(n-octadecyl)indole-6-carboxylic acid]	serum cholesterol and serum triglycerides	-7
CCCCCCCCCCCCc1cc2cc(C(=O)O)ccc2[nH]1 [Compound Y, 2-(n-dodecyl)indole-5-carboxylic acid]	serum cholesterol and serum triglycerides	-80
CCCCCCCCCCCCCCC1Cc2ccc(C(=O)O)cc2N1 (racemic) [Compound AGG]	serum cholesterol and serum triglycerides	-23
CCCCCCCCCCCC1Cc2ccc(C(=O)O)cc2N1 (racemic) [Compound AFF]	serum cholesterol and serum triglycerides	-58
CCCCCCCCCCC1Cc2ccc(C(=O)O)cc2N1 (racemic) [Compound ZZ]	serum cholesterol and serum triglycerides	-77
CCCCCCCCCCc1cc2ccc(C(=O)O)cc2[nH]1 [Compound N, 2-(n-decyl)indole-6-carboxylic acid]	serum cholesterol and serum triglycerides	-45
CCCCCCCCCCCc1cc2c(C(=O)O)cccc2[nH]1 [Compound W, 2-(n-undecyl)indole-4-carboxylic acid]	serum cholesterol and serum triglycerides	22
CCCCCCCCCCCCc1c[nH]c2cc(C(=O)O)ccc12 [Compound BDD, 3-(n-dodecyl)indole-6-carboxylic acid]	serum cholesterol and serum triglycerides	-5
CCCCCCCc1cc2cc(C(=O)OCCCC)ccc2[nH]1 [Compound ARR, n-butyl 2-(n-heptyl)indole-5-carboxylate]	serum cholesterol and serum triglycerides	20
CCCCCCCCCCCCCCCCc1c[nH]c2cc(C(=O)O)ccc12 [Compound BFF, 3-(n-hexadecyl)indole-6-carboxylic acid]	serum cholesterol and serum triglycerides	-17
CCCCCCCCCCCCCCCCCCCCc1cc2ccc(C(=O)OCCCC)cc2[nH]1 [Compound AQQ]	serum cholesterol and serum triglycerides	-12
CCCCCCCCCCCCCCCCc1c[nH]c2ccc(C(=O)OC)cc12 [Compound BCC]	serum cholesterol and serum triglycerides	16
CCCCCCCCCCCCCCCc1cc2cc(C(=O)OCCCC)ccc2[nH]1 [Compound HH]	serum cholesterol and serum triglycerides	-50
CCCCCCCCCCCCCCCc1cc2ccc(C(=O)OCCCC)cc2[nH]1 [Compound APP]	serum cholesterol and serum triglycerides	-20
CCCCCCCCCCCC1Cc2cc(C(=O)O)ccc2N1 (racemic) [Compound YY]	serum cholesterol and serum triglycerides	-64
CCCCCCCCCCCCc1cc2cc(C(=O)OCCCC)ccc2[nH]1 [Compound KK]	serum cholesterol and serum triglycerides	-34
CCCCCCCCCCCCCCCc1cc2ccc(C(=O)OC)cc2[nH]1 [Compound ANN]	serum cholesterol and serum triglycerides	-25
CCCCCCCc1cc2ccc(C(=O)OCC)cc2[nH]1 [Compound AJJ, ethyl 2-(n-heptyl)indole-6-carboxylate]	serum cholesterol and serum triglycerides	6
CCCCCCCCCCCc1cc2ccc(C(=O)OCCCC)cc2[nH]1 [Compound GG]	serum cholesterol and serum triglycerides	-35
CCCCCCCCCCCCCc1cc2ccc(C(=O)OCC)cc2[nH]1 [Compound AMM, ethyl 2-(n-tridecyl)indole-6-carboxylate]	serum cholesterol and serum triglycerides	-12
CCCCCCCCCCCCCCCCCCc1cc2cc(C(=O)O)ccc2[nH]1 [Compound T, 2-(n-octadecyl)indole-5-carboxylic acid]	serum cholesterol and serum triglycerides	-67
CCCCCCCCCCCCCc1cc2ccc(C(=O)O)cc2[nH]1 [Compound A, 2-(n-tridecyl)indole-6-carboxylic acid]	serum cholesterol and serum triglycerides	-33
CCCCCCCCc1c[nH]c2cc(C(=O)O)ccc12 [Compound BEE, 3-(n-octyl)indole-6-carboxylic acid]	serum cholesterol and serum triglycerides	-18
CCCCCCCc1cc2ccc(C(=O)OCCCC)cc2[nH]1 [Compound AKK, n-butyl 2-(n-heptyl)indole-6-carboxylate]	serum cholesterol and serum triglycerides	-10
CCCCCCCCCCCCCCCCCCCCc1cc2cc(C(=O)O)ccc2[nH]1 [Compound AA, 2-(n-eicosyl)indole-5-carboxylic acid]	serum cholesterol and serum triglycerides	-57
CCCCCCCCCc1cc2c(C(=O)O)cccc2[nH]1 [Compound Z, 2-(n-nonyl)indole-4-carboxylic acid]	serum cholesterol and serum triglycerides	-14
CCCCCCCCCCCCCCCc1cc2c(C(=O)OCCCC)cccc2[nH]1 [Compound MM]	serum cholesterol and serum triglycerides	-41
CCCCCCCCCCCCC1CNc2cc(C(=O)O)ccc21 (racemic) [Compound CAA]	serum cholesterol and serum triglycerides	-46
